Measured mortality at 200 ppm values are reported for all entries that follow.
System: Thrips tabaci
Test: Thrips tabaci (onion thrips), sunflower leaf disc test
Assay type: in vivo
Conditions: foliar, 144 h, application rate 200 ppm, mixed ages, 6 days after infestation, read-out: control (mortality)
Description: Thrips tabaci (Onion Thrips): Sunflower leaf discs were placed on agar in 24-well microtiter plates and sprayed with aqueous test solutions prepared from 10′000 ppm DMSO stock solutions. After drying the leaf discs were infested with a thrips population of mixed ages. The samples were assessed for mortality 6 days after infestation.

These solved cases illustrate the format of a correct answer.
Cn1nc(OCC(F)(F)F)c(C(F)(F)F)c1-n1cc(-c2ccc(Cl)c(C(=O)NC3(C#N)CC3)c2)cn1
≥ 80%
Cn1nc(OC(F)(F)C(F)C(F)(F)F)c(C(F)(F)F)c1-n1cc(-c2ccc(Cl)c(C(=O)N(/C(F)=C(\F)C(F)(F)F)C3(C#N)CC3)c2)cn1 (stereo not drawn)
≥ 80%
Cn1nc(OC(F)(F)C(F)(C(F)=C(F)C(F)(F)F)C(F)(F)F)c(C(F)(F)F)c1-n1cc(-c2ccc(Cl)c(C(=O)NC3(C#N)CC3)c2)cn1 (stereo not drawn)
≥ 80%
Cn1nc(OC(F)(F)C(F)C(F)(F)F)c(C(F)(F)F)c1-n1cc(-c2ccc(F)c(C(=O)NC3CC3)c2)cn1 (stereo not drawn)
≥ 80%
CCNC(=O)c1cc(-c2cnn(-c3c(C(F)(F)F)c(OC(F)(F)C(F)C(F)(F)F)nn3C)c2)ccc1Cl (stereo not drawn)
≥ 80%

Suppose we examine the compound Cn1nc(OCC(F)(F)C(F)(F)F)c(C(F)(F)F)c1-n1cc(-c2ccc(Cl)c(C(=O)NC3CC3)c2)cn1 ; what mortality at 200 ppm value has been reported?
≥ 80%

Suppose we examine the compound Cn1nc(OC(F)(F)C(F)Br)c(C(F)(F)F)c1-n1cc(-c2ccc(Cl)c(C(=O)NC3CC3)c2)cn1 (stereo not drawn) ; what mortality at 200 ppm value has been reported?
≥ 80%

Suppose we examine the compound Cn1nc(SC(F)(F)F)c(Br)c1-n1cc(-c2ccc(Cl)c(C(=O)NC3CC3)c2)cn1 ; what mortality at 200 ppm value has been reported?
≥ 80%

Suppose we examine the compound Cn1nc(OC(F)(F)C(F)Br)c(C(F)(F)F)c1-n1cc(-c2ccc(Cl)c(C(=O)NC3(C#N)CC3)c2)cn1 (stereo not drawn) ; what mortality at 200 ppm value has been reported?
≥ 80%

Suppose we examine the compound Cc1ccc(-c2cnn(-c3c(C(F)(F)F)c(OC(F)(F)C(F)C(F)(F)F)nn3C)c2)cc1C(=O)NC1CC1 (stereo not drawn) ; what mortality at 200 ppm value has been reported?
≥ 80%

Suppose we examine the compound Cn1nc(O/C(F)=C/C(F)(F)F)c(C(F)(F)F)c1-n1cc(-c2ccc(Cl)c(C(=O)NC3(C#N)CC3)c2)cn1 ; what mortality at 200 ppm value has been reported?
≥ 80%

Suppose we examine the compound Cn1nc(OCC(F)(F)OC(F)(F)C(F)(F)OC(F)(F)F)c(C(F)(F)F)c1-n1cc(-c2ccc(Cl)c(C(=O)NC3(C#N)CC3)c2)cn1 ; what mortality at 200 ppm value has been reported?
≥ 80%

* * *

test system: Thrips tabaci; assay: Thrips tabaci (onion thrips), sunflower leaf disc test; type: in vivo; details: foliar, 144 h, application rate 200 ppm, mixed ages, 6 days after infestation, read-out: control (mortality)
Measured mortality at 200 ppm values are reported for all entries that follow.

These solved cases illustrate the format of a correct answer.
Cn1nc(OCC(F)(F)F)c(C(F)(F)F)c1-n1cc(-c2ccc(Cl)c(C(=O)NC3CC3)c2)cn1
≥ 80%
Cn1nc(OC(F)(F)C(F)C(F)(F)F)c(C(F)(F)F)c1-n1cc(-c2ccc(Cl)c(C(=O)NC3CC3)c2)cn1 (stereo not drawn)
≥ 80%

Suppose we examine the compound Cn1nc(OC(F)(F)C(F)(C(F)=C(F)C(F)(F)F)C(F)(F)F)c(C(F)(F)F)c1-n1cc(-c2ccc(Cl)c(C(=O)NC3CC3)c2)cn1 (stereo not drawn) ; what mortality at 200 ppm value has been reported?
≥ 80%

* * *

Measured mortality at 200 ppm values are reported for all entries that follow.
tested on: Thrips tabaci; assay: Thrips tabaci (onion thrips), sunflower leaf disc test; type: in vivo; details: foliar, 144 h, application rate 200 ppm, mixed ages, 6 days after infestation, read-out: control (mortality)

Cn1nc(OS(=O)(=O)C(F)(F)F)c(C(F)(F)F)c1-n1cc(-c2ccc(Cl)c(C(=O)NC3(C#N)CC3)c2)cn1
≥ 80%
Cn1nc(OC(F)(F)C(F)(F)Br)c(C(F)(F)F)c1-n1cc(-c2ccc(Cl)c(C(=O)NC3(C#N)CC3)c2)cn1
≥ 80%

Please find the next molecule below.
Suppose we examine the molecule Cn1nc(OC(F)(F)C(F)C(F)(F)F)c(C(F)(F)F)c1-n1cc(-c2cnc(Cl)c(C(=O)NC3CC3)c2)cn1 (stereo not drawn) ; what mortality at 200 ppm value has been reported?
≥ 80%

* * *

tested on: Tetranychus urticae; experiment: Tetranychus urticae (two-spotted spider mite), bean leaf disc test; type: in vivo; details: foliar, 192 h, application rate 200 ppm, 8 days after infestation, read-out: control (mortality on mixed population, mobile stages)
Measured mortality at 200 ppm values are reported for all entries that follow.

Cn1nc(OC(F)(F)CBr)c(C(F)(F)F)c1-n1cc(-c2ccc(Cl)c(C(=O)NC3(C#N)CC3)c2)cn1
≥ 80%

Suppose we examine the molecule Cn1nc(OC(F)(F)C(F)OC(F)(F)F)c(C(F)(F)F)c1-n1cc(-c2cnc(Cl)c(C(=O)NC3(C#N)CC3)c2)cn1 (stereo not drawn) ; what mortality at 200 ppm value has been reported?
≥ 80%

Suppose we examine the molecule Cn1nc(OC(F)(F)C(F)C(F)(F)F)c(C(F)(F)F)c1-n1cc(-c2ccc(F)c(C(=O)NC3(C#N)CC3)c2)cn1 (stereo not drawn) ; what mortality at 200 ppm value has been reported?
≥ 80%

* * *

system: Thrips tabaci; test: Thrips tabaci (onion thrips), sunflower leaf disc test; format: in vivo; details: foliar, 144 h, application rate 200 ppm, mixed ages, 6 days after infestation, read-out: control (mortality)
READOUT: mortality at 200 ppm

CN(C(=O)c1cc(-c2cnn(-c3c(C(F)(F)F)c(OC(F)(F)C(F)C(F)(F)F)nn3C)c2)ccc1Cl)C1(C#N)CC1 (stereo not shown) [compound 55]
≥ 80%
Cn1nc(OC(F)(F)C(F)C(F)(F)F)c(C(F)(F)F)c1-n1cc(-c2ccc(F)c(C(=O)NC3(C#N)CC3)c2)cn1 (stereo not shown) [compound 59]
≥ 80%
Cn1nc(OC(F)=C(F)C(F)(F)F)c(C(F)(F)F)c1-n1cc(-c2ccc(Cl)c(C(=O)NC3CC3)c2)cn1 [compound 53]
≥ 80%

Suppose we examine the molecule Cn1nc(OCCC(F)=C(F)F)c(C(F)(F)F)c1-n1cc(-c2ccc(Cl)c(C(=O)NC3(C#N)CC3)c2)cn1 [compound 46] ; what mortality at 200 ppm value has been reported?
≥ 80%

Suppose we examine the molecule Cn1nc(OCC(F)(F)C(F)F)c(C(F)(F)F)c1-n1cc(-c2ccc(Cl)c(C(=O)NC3CC3)c2)cn1 [compound 33] ; what mortality at 200 ppm value has been reported?
≥ 80%

Suppose we examine the molecule Cn1nc(OC(F)(F)CBr)c(C(F)(F)F)c1-n1cc(-c2ccc(Cl)c(C(=O)NC3(C#N)CC3)c2)cn1 [compound 41] ; what mortality at 200 ppm value has been reported?
≥ 80%

Suppose we examine the molecule Cn1nc(OC(F)(F)C(F)C(F)(F)F)c(C(F)(F)F)c1-n1cc(-c2cnc(Cl)c(C(=O)NC3(C#N)CC3)c2)cn1 (stereo not shown) [compound 65] ; what mortality at 200 ppm value has been reported?
≥ 80%

All figures here come from patent US10750742B2.
